Listed here are compounds together with their documented inhibition at 0.1 µM.
# MEASURED_TARGET: AR protein (Homo sapiens, UniProt P10275)
# Construct: degradation activity of the compounds disclosed in the present disclosure on AR protein in VCaP cells; host or cells: VCaP
# EXPERIMENT_NOTES: Degradation of AR protein in VCaP cells (Western blot)
# Type: cell-based
# DETAILS: compound at 100 nM, 8 hours, read-out: Degradation rate of the AR protein in VCaP cells, 100 nM (%)
ENDPOINT_LABEL: inhibition at 0.1 µM (%)

| COMPOUND | ENDPOINT_LABEL | UNIT_STRING | NUMBER |
| --- | --- | --- | --- |
| N#Cc1ccc(O[C@H]2CC[C@H](NC(=O)c3ccc(N4CCN(CC(=O)N5CCC6(CC5)COc5c6ccc6c5CN(C5CCC(=O)NC5=O)C6=O)CC4)nn3)CC2)cc1Cl (some centres unmarked) [Compound 241] | inhibition at 0.1 µM | % | 77 |
| N#Cc1ccc(O[C@H]2CC[C@H](NC(=O)c3ccc(N4CCC(F)(CN5CCC6(CC5)COc5c6ccc6c5CN(C5CCC(=O)NC5=O)C6=O)CC4)cn3)CC2)cc1Cl (some centres unmarked) [Compound 260] | inhibition at 0.1 µM | % | 74 |
| N#Cc1ccc(O[C@H]2CC[C@H](NC(=O)c3ccc(N4CCC5(CCC(C(=O)N6CCC7(CC6)COc6c7ccc7c6CN(C6CCC(=O)NC6=O)C7=O)CC5)CC4)nn3)CC2)cc1Cl (some centres unmarked) [Compound 253] | inhibition at 0.1 µM | % | 55 |
| COc1cc(O[C@H]2CC[C@H](NC(=O)c3ccc(N4CCC(CN5CC6(CCc7cc8c(cc7O6)C(=O)N(C6CCC(=O)NC6=O)C8=O)C5)(OC)CC4)cc3)CC2)ccc1C#N (some centres unmarked) [Compound 285] | inhibition at 0.1 µM | % | 66 |
| CC1(CN2CC3(CCc4cc5c(cc4O3)C(=O)N(C3CCC(=O)NC3=O)C5=O)C2)CCN(c2ccc(C(=O)N[C@H]3CC[C@H](Oc4ccc(C#N)c(Cl)c4)CC3)nn2)CC1 (some centres unmarked) [Compound 2] | inhibition at 0.1 µM | % | 56 |

----------
# MEASURED_TARGET: AR protein (Homo sapiens)
# Construct: degradation activity of the compounds disclosed in the present disclosure on AR protein in VCaP cells; host or cells: VCaP
# Sequence (P10275 1-920): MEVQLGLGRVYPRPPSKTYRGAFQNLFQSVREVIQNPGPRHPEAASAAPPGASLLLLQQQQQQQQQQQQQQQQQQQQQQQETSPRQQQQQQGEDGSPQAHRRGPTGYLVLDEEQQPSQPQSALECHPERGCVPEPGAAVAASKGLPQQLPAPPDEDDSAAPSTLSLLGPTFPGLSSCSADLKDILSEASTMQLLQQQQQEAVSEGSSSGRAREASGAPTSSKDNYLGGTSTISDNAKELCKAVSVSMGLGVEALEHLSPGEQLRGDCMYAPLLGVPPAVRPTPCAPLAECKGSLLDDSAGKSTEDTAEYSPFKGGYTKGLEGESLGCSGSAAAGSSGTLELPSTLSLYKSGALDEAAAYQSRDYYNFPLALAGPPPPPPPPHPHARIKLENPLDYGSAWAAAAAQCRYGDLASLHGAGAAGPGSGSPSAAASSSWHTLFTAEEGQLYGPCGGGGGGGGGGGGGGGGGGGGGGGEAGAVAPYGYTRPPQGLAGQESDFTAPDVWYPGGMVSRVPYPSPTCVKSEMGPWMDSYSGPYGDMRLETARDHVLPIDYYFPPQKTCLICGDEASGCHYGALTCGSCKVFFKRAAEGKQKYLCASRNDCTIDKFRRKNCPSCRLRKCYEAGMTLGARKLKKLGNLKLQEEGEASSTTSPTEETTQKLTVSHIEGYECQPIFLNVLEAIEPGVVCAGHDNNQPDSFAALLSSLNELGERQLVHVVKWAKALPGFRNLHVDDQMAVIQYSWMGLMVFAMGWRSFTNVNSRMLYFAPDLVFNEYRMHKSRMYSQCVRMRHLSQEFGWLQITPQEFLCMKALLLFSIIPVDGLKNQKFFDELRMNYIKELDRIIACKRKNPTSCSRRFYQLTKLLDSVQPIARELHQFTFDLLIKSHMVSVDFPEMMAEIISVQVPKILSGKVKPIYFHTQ
# EXPERIMENT_NOTES: Degradation of AR protein in VCaP cells (Western blot)
# Format: cell-based
# DETAILS: compound at 100 nM, 8 hours, read-out: Degradation rate of the AR protein in VCaP cells, 100 nM (%)

| MOLECULE | inhibition at 0.1 µM |
| --- | --- |
| N#Cc1ccc(O[C@H]2CC[C@H](NC(=O)c3ccc(N4CCC5(CC4)CC(N4CCC6(CC4)COc4cc7c(cc46)C(=O)N(C4CCC(=O)NC4=O)C7=O)C5)nn3)CC2)cc1Cl (stereo partly drawn) | 79% |
| N#Cc1ccc(O[C@H]2CC[C@H](NC(=O)c3ccc(N4CC(CN5CCC6(CCc7cc8c(cc7O6)C(=O)N(C6CCC(=O)NC6=O)C8=O)CC5)C4)nn3)CC2)cc1Cl (stereo partly drawn) | 54% |
| COc1cc(O[C@H]2CC[C@H](NC(=O)c3ccc(N4CCC(CN5CCC6(CC5)COc5c6ccc6c5C(=O)N(C5CCC(=O)NC5=O)C6=O)(OC)CC4)nn3)CC2)ccc1C#N (stereo partly drawn) | 75% |
